These data points were gathered from the supplement of paper PMC6755084.

Please provide measured fraction ligated for the entries that follow.
B1: F1*; the commonest letter at each place (parent)
chain: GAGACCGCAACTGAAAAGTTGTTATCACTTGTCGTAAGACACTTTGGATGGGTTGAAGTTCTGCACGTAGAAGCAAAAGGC

Variants of: B1
Experiment: fraction ligated after 30 min (ligated reads / total reads); higher = more ligase activity
Conditions: with F1*sub RNA substrate (template-directed ligation), 42 °C
Numbers only.

A selection of reference data follows.
[
  {
    "VARIANT": "T23A T32C",
    "fraction ligated": 0.771
  },
  {
    "VARIANT": "T30C A57T",
    "fraction ligated": 0.769
  },
  {
    "VARIANT": "G46A A48G",
    "fraction ligated": 0.609
  },
  {
    "VARIANT": "T29G G38T",
    "fraction ligated": 0.855
  },
  {
    "VARIANT": "T43A A57C",
    "fraction ligated": 0.792
  }
]

For each of the items listed, what is its fraction ligated?
1. T32G T44A
2. C28A A56T
3. T23G T32C
4. T23A T25G
5. A36G T49A
6. A36C A41G
7. C26T A57C

A.
1: 0.807; 2: 0.784; 3: 0.75; 4: 0.737; 5: 0.725; 6: 0.741; 7: 0.84

Each variant below has a reported value. Please supply its fraction ligated.
1. T32A G38A
2. C26G T35G
3. C26A A48C
4. G38C C42A

A.
0.861
0.784
0.366
0.857

State the recorded fraction ligated for every item in the following list.
1. T30C
2. T32A G47C
3. T23G T43A
4. C28T A39C
5. T35A T44G

A.
1. 0.807
2. 0.102
3. 0.811
4. 0.795
5. 0.821

Q. Fill in the blank: the reported fraction ligated of A24C A56T is ____.
A. 0.0488
